- STUDY_SYSTEM: SNAP-hSPR (sepiapterin reductase, SPR) (Homo sapiens, UniProt P35270)
- Sequence (P35270 whole entry): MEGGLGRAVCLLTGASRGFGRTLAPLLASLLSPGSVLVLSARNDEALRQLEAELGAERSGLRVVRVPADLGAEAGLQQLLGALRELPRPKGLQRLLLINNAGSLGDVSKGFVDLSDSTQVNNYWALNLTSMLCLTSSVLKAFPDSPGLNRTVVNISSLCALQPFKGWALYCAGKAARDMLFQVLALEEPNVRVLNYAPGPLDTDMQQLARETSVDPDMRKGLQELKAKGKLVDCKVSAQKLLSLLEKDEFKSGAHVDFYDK
Label key: 1 means IC50 under 3 nM; 0 means IC50 of 3 nM or more.

Qu. In the record for Cc1c(C(=O)N2CCN(S(=O)(=O)c3ccccc3F)CC2)cnn1-c1nn2cccc2c(=O)[nH]1 [Q-1799] , is IC50 less than 3 nM?
Ans. 1

Qu. In the record for Cc1c(C(=O)N2CCN(c3nnc(-c4cccnc4)o3)CC2)cnn1-c1nn2cccc2c(=O)[nH]1 [Q-1150] , is IC50 less than 3 nM?
Ans. 1

Qu. In the record for Cc1c(C(=O)N2CC3CC(C2)N3C2CC2)cnn1-c1nn2cccc2c(=O)[nH]1 [Q-1195] , is IC50 less than 3 nM?
Ans. 1

Qu. In the record for Cc1c(C(=O)N2CCN(C(C)C(F)(F)F)CC2)cnn1-c1nc2c(c(=O)[nH]1)CCC2 (centres unmarked) [Q-1054] , is IC50 less than 3 nM?
Ans. 1

Qu. In the record for Cc1c(C(=O)N2CCCCC2(C)C)cnn1-c1nc2ccsc2c(=O)[nH]1 [Q-0412] , is IC50 less than 3 nM?
Ans. 0

Qu. In the record for CC(=O)C1(c2ccccc2)CCN(C(=O)c2cnn(-c3nn4cccc4c(=O)[nH]3)c2C)CC1 [Q-1215] , is IC50 less than 3 nM?
Ans. 1

Qu. In the record for Cc1c(C(=O)N2CC3COCC(C3)C2)cnn1-c1nc2c(c(=O)[nH]1)CCC2 [Q-0569] , is IC50 less than 3 nM?
Ans. 0

---

- STUDY_SYSTEM: UniProt P35270
Assignment: determine reported pIC50 for the given compounds.
Interpret pIC50 as the negative base-10 log of the concentration measured in mol/L.

Qu. Which pIC50 is listed for Cc1c(C(=O)N2CCC3(CCCCN3C(=O)OC(C)(C)C)C2)cnn1-c1nc2ccsc2c(=O)[nH]1 (stereo not shown) ?
Ans. 8.30

Qu. Which pIC50 is listed for Cc1cc(=O)[nH]c(-n2ncc(C(=O)N3CCN(c4ccccn4)CC3)c2Cc2ccccc2)n1 ?
Ans. 6.70

Qu. Which pIC50 is listed for Cc1c(C(=O)N2CCC(C(F)(F)F)CC2)cnn1-c1nc2c(c(=O)[nH]1)CCCC2 ?
Ans. 7.52

Qu. Which pIC50 is listed for Cc1c(C(=O)N2CC(S(=O)(=O)c3ccccc3)C2)cnn1-c1nn2cccc2c(=O)[nH]1 ?
Ans. 8.70

---

Assignment: determine reported pIC50 for the given compounds.
- STUDY_SYSTEM: SNAP-hSPR (sepiapterin reductase, SPR) (Homo sapiens)
Interpret pIC50 as the negative base-10 log of the concentration measured in mol/L.

Qu. Which pIC50 is listed for Cc1cc(=O)[nH]c(-n2ncc(C(=O)N(C)C3CCCc4ccccc43)c2C)n1 (centres unmarked) ?
Ans. 7.70

Qu. Which pIC50 is listed for Cc1c(C(=O)N2CCN(c3cnccn3)CC2)cnn1-c1nn2cccc2c(=O)[nH]1 ?
Ans. 8.70

Qu. Which pIC50 is listed for Cc1c(C(=O)N2CC3CC(C2)N3C(=O)OC(C)(C)C)cnn1-c1nn2cccc2c(=O)[nH]1 ?
Ans. 9.00

Qu. Which pIC50 is listed for Cc1cc(=O)[nH]c(-n2cc(C)c(C(=O)N3CCc4ccccc4C3)n2)n1 ?
Ans. 6.40

Qu. Which pIC50 is listed for Cc1c(C(=O)N2CCCCC2c2cccnc2)cnn1-c1nc2c(c(=O)[nH]1)CCC2 (centres unmarked) ?
Ans. 8.40

Qu. Which pIC50 is listed for Cc1c(C(=O)N2CC3CCCC(C2)C3(O)C(F)(F)F)cnn1-c1nn2cccc2c(=O)[nH]1 (centres unmarked) ?
Ans. 9.00

Qu. Which pIC50 is listed for CCC(=O)N1CCN(C(=O)c2cnn(-c3nn4cccc4c(=O)[nH]3)c2C)CC1 ?
Ans. 8.22

Qu. Which pIC50 is listed for Cc1c(C(=O)N2CCN(S(=O)(=O)c3cccc(C#N)c3)CC2)cnn1-c1nn2cccc2c(=O)[nH]1 ?
Ans. 8.70

Qu. Which pIC50 is listed for Cc1c(C(=O)N2CCCC(F)(F)CC2)cnn1-c1nn2cccc2c(=O)[nH]1 ?
Ans. 8.70

Qu. Which pIC50 is listed for Cc1nc(-n2ncc(C(=O)N3CCC(C(F)(F)F)CC3)c2C)[nH]c(=O)c1Cl ?
Ans. 8.52

Qu. Which pIC50 is listed for Cc1c(C(=O)N2CCN(c3nc(-c4ccccc4Cl)cs3)CC2)cnn1-c1nn2cccc2c(=O)[nH]1 ?
Ans. 8.10

Qu. Which pIC50 is listed for Cc1c(C(=O)N2CCC(C(F)(F)F)CC2)cnn1-c1nc2c(c(=O)[nH]1)CC2 ?
Ans. 8.30

Qu. Which pIC50 is listed for Cc1cc(=O)[nH]c(-n2cc(C(=O)N3CCc4ccccc4C3)nn2)n1 ?
Ans. 7.70

Qu. Which pIC50 is listed for Cc1c(C(=O)N2C3CCC2CC(c2ccccc2)C3)cnn1-c1nc2c(c(=O)[nH]1)CCC2 (centres unmarked) ?
Ans. 8.00

Qu. Which pIC50 is listed for Cc1cc(=O)[nH]c(-n2ncc(C(=O)N3CCc4cccnc4C3)c2C)n1 ?
Ans. 8.05

Qu. Which pIC50 is listed for O=C(O)c1cn(-c2nn3cccc3c(=O)[nH]2)nn1 ?
Ans. 6.70

Qu. Which pIC50 is listed for Cc1c(C(=O)N2CCC(C(CCF)C(F)(F)F)CC2)cnn1-c1nn2cccc2c(=O)[nH]1 (centres unmarked) ?
Ans. 9.00

---

VALUE_KIND: pIC50
Interpret pIC50 as the negative base-10 log of the concentration measured in mol/L.

Qu. // fetch SNAP-hSPR (sepiapterin reductase, SPR) (Homo sapiens) pIC50 for O=C(c1cn(-c2nn3cccc3c(=O)[nH]2)nn1)N1CC2CC(C1)N2CC(F)(F)F [Q-1226]
Ans. 8.15

Qu. // fetch SNAP-hSPR (sepiapterin reductase, SPR) (Homo sapiens) pIC50 for Cc1c(C(=O)N2CC[C@H]2c2ccc(F)nc2)cnn1-c1nn2cccc2c(=O)[nH]1 [Q-2055]
Ans. 8.15

Qu. // fetch SNAP-hSPR (sepiapterin reductase, SPR) (Homo sapiens) pIC50 for Cc1cc2nc(-n3ncc(C(=O)N4CCc5ccccc5C4)c3C)[nH]c(=O)c2s1 [Q-0407]
Ans. 5.77

Qu. // fetch SNAP-hSPR (sepiapterin reductase, SPR) (Homo sapiens) pIC50 for Cc1c(C(=O)N2CCC(S(=O)(=O)c3ccccc3)CC2)cnn1-c1nc2c(c(=O)[nH]1)CCC2 [Q-0504]
Ans. 8.40

---

Assignment: determine reported IC50 for the given compounds.
Report as a plain number; the unit nM is understood.

Qu. // fetch SNAP-hSPR (sepiapterin reductase, SPR) (Homo sapiens, UniProt P35270) IC50 for Cc1c(C(=O)N2CC(CN)C2)cnn1-c1nc2c(c(=O)[nH]1)CCC2
Ans. 60

Qu. // fetch SNAP-hSPR (sepiapterin reductase, SPR) (Homo sapiens, UniProt P35270) IC50 for Cc1c(C(=O)N2CCC2c2ccc(Cl)cc2)cnn1-c1nn2cccc2c(=O)[nH]1 (stereo not drawn)
Ans. 6

Qu. // fetch SNAP-hSPR (sepiapterin reductase, SPR) (Homo sapiens, UniProt P35270) IC50 for Cc1c(C(=O)N2CCC(S(=O)(=O)c3ccc(F)c(F)c3)CC2)cnn1-c1nn2cccc2c(=O)[nH]1
Ans. 3

Qu. // fetch SNAP-hSPR (sepiapterin reductase, SPR) (Homo sapiens, UniProt P35270) IC50 for Cc1c(C(=O)N2CCC(n3cccc3Cl)CC2)cnn1-c1nn2cccc2c(=O)[nH]1
Ans. 1

Qu. // fetch SNAP-hSPR (sepiapterin reductase, SPR) (Homo sapiens, UniProt P35270) IC50 for Cc1cc(=O)[nH]c(-n2ncc(C(=O)N3CCC4(CCN(C)C4)C3)c2C)n1 (stereo not drawn)
Ans. 200

Qu. // fetch SNAP-hSPR (sepiapterin reductase, SPR) (Homo sapiens, UniProt P35270) IC50 for Cc1c(C(=O)N2CCC(C(O)C(F)(F)F)CC2)cnn1-c1nc2c(c(=O)[nH]1)CCC2 (stereo not drawn)
Ans. 2

Qu. // fetch SNAP-hSPR (sepiapterin reductase, SPR) (Homo sapiens, UniProt P35270) IC50 for Cc1c(C(=O)N2CCN(c3nc(C(F)(F)F)cs3)CC2)cnn1-c1nn2cccc2c(=O)[nH]1
Ans. 3

Qu. // fetch SNAP-hSPR (sepiapterin reductase, SPR) (Homo sapiens, UniProt P35270) IC50 for Cc1c(C(=O)N2CCN(c3nc(-c4ccc(C(F)(F)F)cc4)cs3)CC2)cnn1-c1nn2cccc2c(=O)[nH]1
Ans. 20

Qu. // fetch SNAP-hSPR (sepiapterin reductase, SPR) (Homo sapiens, UniProt P35270) IC50 for Cc1nc(C)c(S(=O)(=O)N2CCN(C(=O)c3cnn(-c4nn5cccc5c(=O)[nH]4)c3C)CC2)s1
Ans. 1

Qu. // fetch SNAP-hSPR (sepiapterin reductase, SPR) (Homo sapiens, UniProt P35270) IC50 for Cc1c(C(=O)N2CCN(S(=O)(=O)c3cccc(Cl)c3)CC2)cnn1-c1nn2cccc2c(=O)[nH]1
Ans. 1

Qu. // fetch SNAP-hSPR (sepiapterin reductase, SPR) (Homo sapiens, UniProt P35270) IC50 for Cc1c(C(=O)N2CCC(C(=O)N3CCCC3)(C(F)(F)F)CC2)cnn1-c1nn2cccc2c(=O)[nH]1
Ans. 1

Qu. // fetch SNAP-hSPR (sepiapterin reductase, SPR) (Homo sapiens, UniProt P35270) IC50 for O=C(c1ccc(-c2nc3c(c(=O)[nH]2)CCC3)s1)N1CCC(C(F)(F)F)CC1
Ans. 1

Qu. // fetch SNAP-hSPR (sepiapterin reductase, SPR) (Homo sapiens, UniProt P35270) IC50 for COC(=O)c1ccc(-c2nc3c(c(=O)[nH]2)CCC3)nc1
Ans. 80

Qu. // fetch SNAP-hSPR (sepiapterin reductase, SPR) (Homo sapiens, UniProt P35270) IC50 for Cc1c(C(=O)N2C3CCC2CN(C(=O)OC(C)(C)C)C3)cnn1-c1nn2cccc2c(=O)[nH]1
Ans. 2

Qu. // fetch SNAP-hSPR (sepiapterin reductase, SPR) (Homo sapiens, UniProt P35270) IC50 for Cc1c(C(=O)N2CCN(c3nnc(C(F)(F)F)o3)CC2)cnn1-c1nn2cccc2c(=O)[nH]1
Ans. 3

Qu. // fetch SNAP-hSPR (sepiapterin reductase, SPR) (Homo sapiens, UniProt P35270) IC50 for Cc1c(C(=O)N2CCN(C(=O)C34CC(C#N)(C3)C4)CC2)cnn1-c1nc2c(c(=O)[nH]1)CCC2
Ans. 4

Qu. // fetch SNAP-hSPR (sepiapterin reductase, SPR) (Homo sapiens, UniProt P35270) IC50 for Cc1c(C(=O)N2CCCCC2)cnn1-c1nc2c(c(=O)[nH]1)CCC2
Ans. 5

Qu. // fetch SNAP-hSPR (sepiapterin reductase, SPR) (Homo sapiens, UniProt P35270) IC50 for C=CCC(C#N)(CC=C)C1CCN(C(=O)c2cnn(-c3nn4cccc4c(=O)[nH]3)c2C)CC1
Ans. 2

Qu. // fetch SNAP-hSPR (sepiapterin reductase, SPR) (Homo sapiens, UniProt P35270) IC50 for Cc1c(C(=O)N2CCN(c3ccc(C#N)cn3)CC2)cnn1-c1nn2cccc2c(=O)[nH]1
Ans. 3

Qu. // fetch SNAP-hSPR (sepiapterin reductase, SPR) (Homo sapiens, UniProt P35270) IC50 for Cc1c(C(=O)N2CC(C)(C)OC(C)(C)C2)cnn1-c1nc2ccsc2c(=O)[nH]1
Ans. 10

Qu. // fetch SNAP-hSPR (sepiapterin reductase, SPR) (Homo sapiens, UniProt P35270) IC50 for Cc1c(C(=O)N2CCc3nc(-c4ccc(C(F)(F)F)cc4)sc3C2)cnn1-c1nn2cccc2c(=O)[nH]1
Ans. 10

Qu. // fetch SNAP-hSPR (sepiapterin reductase, SPR) (Homo sapiens, UniProt P35270) IC50 for Cc1c(C(=O)N2CC3CC2C3)cnn1-c1nn2cccc2c(=O)[nH]1
Ans. 2

Qu. // fetch SNAP-hSPR (sepiapterin reductase, SPR) (Homo sapiens, UniProt P35270) IC50 for Cc1c(C(=O)N2CCC(OCC(F)(F)F)CC2)cnn1-c1nc2c(c(=O)[nH]1)CCC2
Ans. 8

Qu. // fetch SNAP-hSPR (sepiapterin reductase, SPR) (Homo sapiens, UniProt P35270) IC50 for Cc1c(C(=O)N2CCN(c3ccc(C#N)cc3)CC2)cnn1-c1nn2cccc2c(=O)[nH]1
Ans. 1

Qu. // fetch SNAP-hSPR (sepiapterin reductase, SPR) (Homo sapiens, UniProt P35270) IC50 for Cc1c(C(=O)N2CCCN(C(C)C(F)(F)F)CC2)cnn1-c1nn2cccc2c(=O)[nH]1 (stereo not drawn)
Ans. 3

Qu. // fetch SNAP-hSPR (sepiapterin reductase, SPR) (Homo sapiens, UniProt P35270) IC50 for Cc1c(C(=O)N2CCN(c3ncc(-c4ccccc4F)s3)CC2)cnn1-c1nn2cccc2c(=O)[nH]1
Ans. 10

Qu. // fetch SNAP-hSPR (sepiapterin reductase, SPR) (Homo sapiens, UniProt P35270) IC50 for Cc1nn(-c2nn3cccc3c(=O)[nH]2)cc1C(=O)N1CCN(CC(F)(F)F)CC1
Ans. 6

Qu. // fetch SNAP-hSPR (sepiapterin reductase, SPR) (Homo sapiens, UniProt P35270) IC50 for O=C(c1ccnc(-c2nc3c(c(=O)[nH]2)CCC3)c1)N1CCC(C(F)(F)F)CC1
Ans. 30

Qu. // fetch SNAP-hSPR (sepiapterin reductase, SPR) (Homo sapiens, UniProt P35270) IC50 for Cc1c(C(=O)N2CCC(c3nc(C(F)(F)F)cs3)CC2)cnn1-c1nn2cccc2c(=O)[nH]1
Ans. 1

Qu. // fetch SNAP-hSPR (sepiapterin reductase, SPR) (Homo sapiens, UniProt P35270) IC50 for O=C(c1cnn(-c2nc3c(c(=O)[nH]2)CCC3)c1)N1CCC(CC(F)(F)F)CC1
Ans. 3

Qu. // fetch SNAP-hSPR (sepiapterin reductase, SPR) (Homo sapiens, UniProt P35270) IC50 for Cc1c(C(=O)N2CCC3(CC2)CC3c2nnc(-c3ccccc3)o2)cnn1-c1nc2c(c(=O)[nH]1)CCC2 (stereo not drawn)
Ans. 4

Qu. // fetch SNAP-hSPR (sepiapterin reductase, SPR) (Homo sapiens, UniProt P35270) IC50 for Cc1c(C(=O)N2CCC2c2ccnc(F)c2)cnn1-c1nn2cccc2c(=O)[nH]1 (stereo not drawn)
Ans. 20

Qu. // fetch SNAP-hSPR (sepiapterin reductase, SPR) (Homo sapiens, UniProt P35270) IC50 for Cc1c(C(=O)N2CC(CNC(=O)OC(C)(C)C)C2)cnn1-c1nc2ccsc2c(=O)[nH]1
Ans. 20
